- ASSAYED_SYSTEM: cGMP-specific 3',5'-cyclic phosphodiesterase (Homo sapiens)
- ASSAY_OVERVIEW: PDE5 Inhibition Assay
pIC50: −log10 of the molar value.
PARAMETER: pIC50

Below are worked cases with known answers.
COMPOUND: COc1ccc(CCNc2c3c(nc4ccc(C#N)cc24)CCN(C(C)=O)C3)cc1Cl
PARAMETER: pIC50
READOUT_VALUE: 7.97
--
COMPOUND: COc1ccc(Nc2c3c(nc4ccc(C#N)cc24)CCN(C(C)=O)C3)cc1Cl
PARAMETER: pIC50
READOUT_VALUE: 6.23

1 = COc1cc(Nc2c3c(nc4ccc(C#N)cc24)CCN(C(C)=O)C3)ccc1Cl
2 = COc1ccc(C(C)Nc2c3c(nc4ccc(C#N)cc24)CCN(C(C)=O)C3)cc1Cl (centres undefined)
## Input Returns the identifier with the smallest measured pIC50 among 1 and 2 . // caller expects the label of the chosen entry
## Output 1
(1: 6.37, 2: 7.57)
